Value source: paper PMC3760131

- TESTED TARGET: XIAP BIR2 (Homo sapiens, UniProt P98170)
- Construct: 6×histidine-tagged BIR2 (amino acids 124–240) or BIR3 (amino acids 241–356) domain of the XIAP protein
- Sequence (P98170 124-240): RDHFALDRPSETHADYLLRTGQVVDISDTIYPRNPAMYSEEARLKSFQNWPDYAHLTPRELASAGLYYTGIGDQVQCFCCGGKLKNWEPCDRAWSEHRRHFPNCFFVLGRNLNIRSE
- PROTOCOL: BIR2 TR-FRET assay (displacement of AVPI-derived peptide)
- Format: binding
pKi: −log10 of the molar value. Where a SMILES comes first, the peptide text is derived from it.

| MOLECULE | pKi |
| --- | --- |
| CC[C@H](C)[C@H](NC(=O)[C@H](C)N)C(=O)N[C@@H](C)C(=O)N[C@H](C(=O)O)C(C)C [AIAV] (H-AIAV-OH) | 5.73 |
